The reported numbers originate from PubChem BioAssay AID248.

Test system: L1210 leukemia ip in BDF1 mice, survival T/C
Experiment: NCI In Vivo Anticancer Drug Screen. Data for tumor model L1210 Leukemia (intraperitoneal) in B6D2F1 (BDF1) mice
Conditions: endpoint: mean survival time; dose: 400.0 mg/kg/injection; schedule: Q04DX002 (ip); vehicle: saline; higher = longer survival
Toxic doses and inconclusive results are not listed.
measured-attribute: T/C

*Q* Give me measured T/C, please, for this compound: CCC(C=NCCBr)(CCC(=O)OC)CCC(=O)OC
*A* 112 % of control

*Q* Give me measured T/C, please, for this compound: CCCCCCCCCC(=O)N(CCCC)CCCC
*A* 88 % of control

*Q* Give me measured T/C, please, for this compound: C[N+]1(N)CCCCCC1
*A* 87 % of control

*Q* Give me measured T/C, please, for this compound: CC1CCCCC1C(=O)N1CCCCCC1 (stereo unspecified)
*A* 108 % of control

*Q* Give me measured T/C, please, for this compound: CCOC(=O)Cn1c(C)cnc1C
*A* 98 % of control

*Q* Give me measured T/C, please, for this compound: O=C(O)CCCN1CCCCC1
*A* 100 % of control

---

Test system: L1210 leukemia ip in BDF1 mice, survival T/C
Assay: NCI In Vivo Anticancer Drug Screen. Data for tumor model L1210 Leukemia (intraperitoneal) in B6D2F1 (BDF1) mice
Conditions: endpoint: mean survival time; dose: 50.0 mg/kg/injection; schedule: Q01DX009 (ip); vehicle: saline with Tween-80; higher = longer survival
Toxic doses and inconclusive results are not listed.
Give T/C for every item shown.

*Q* State the measured T/C (L1210 leukemia ip in BDF1 mice, survival T/C) of O=C1CCCC/C1=C1/C(=O)Nc2ccccc21
*A* 104 % of control

*Q* State the measured T/C (L1210 leukemia ip in BDF1 mice, survival T/C) of Nc1c(I)cc(C(=O)O)c(O)c1I
*A* 97 % of control

*Q* State the measured T/C (L1210 leukemia ip in BDF1 mice, survival T/C) of O=C(O)c1ccccc1C(=O)OO
*A* 97 % of control

*Q* State the measured T/C (L1210 leukemia ip in BDF1 mice, survival T/C) of CCCCCCC1=NC(C)(C)CO1
*A* 97 % of control

*Q* State the measured T/C (L1210 leukemia ip in BDF1 mice, survival T/C) of COc1cc(CC(=O)NO)cc(OC)c1OC
*A* 100 % of control

*Q* State the measured T/C (L1210 leukemia ip in BDF1 mice, survival T/C) of CS(=O)(=O)c1ccc(Sc2ccc(S(C)(=O)=O)cc2)cc1
*A* 92 % of control

*Q* State the measured T/C (L1210 leukemia ip in BDF1 mice, survival T/C) of Nc1ccc2sc3ccccc3c2c1
*A* 106 % of control

*Q* State the measured T/C (L1210 leukemia ip in BDF1 mice, survival T/C) of NC(=O)/C=C/C(N)=O
*A* 88 % of control

*Q* State the measured T/C (L1210 leukemia ip in BDF1 mice, survival T/C) of C=C(Br)CNC(=O)NCC
*A* 91 % of control

*Q* State the measured T/C (L1210 leukemia ip in BDF1 mice, survival T/C) of CCC1(c2ccccc2)C(=O)NC(=O)N(CN2CCOCC2)C1=O (stereo not given)
*A* 114 % of control

*Q* State the measured T/C (L1210 leukemia ip in BDF1 mice, survival T/C) of CC(=O)Nc1ccc(OC(=O)Nc2ccc(Cl)cc2C(F)(F)F)cc1
*A* 93 % of control

*Q* State the measured T/C (L1210 leukemia ip in BDF1 mice, survival T/C) of CCOC(=O)c1c(NC(=O)CCl)ssc1=S
*A* 103 % of control

*Q* State the measured T/C (L1210 leukemia ip in BDF1 mice, survival T/C) of C=CCN(CC=C)c1nc(OC)nc(OC)n1
*A* 94 % of control

*Q* State the measured T/C (L1210 leukemia ip in BDF1 mice, survival T/C) of C1=C\C2CC2CCCC/1 (stereo not given)
*A* 94 % of control

*Q* State the measured T/C (L1210 leukemia ip in BDF1 mice, survival T/C) of Cc1nc(Cl)c(C(N)=O)nc1C
*A* 96 % of control

*Q* State the measured T/C (L1210 leukemia ip in BDF1 mice, survival T/C) of C[C@]12C=CC(=O)C=C1CC[C@@H]1[C@@H]2C(=O)C[C@@]2(C)[C@H]1CC[C@]2(O)C(=O)CO
*A* 102 % of control

*Q* State the measured T/C (L1210 leukemia ip in BDF1 mice, survival T/C) of CCCC/C=C/C(C)O (stereo not given)
*A* 101 % of control

*Q* State the measured T/C (L1210 leukemia ip in BDF1 mice, survival T/C) of O=C(c1ccccc1)C(Br)C(C(=O)c1ccccc1)c1ccccc1 (stereo not given)
*A* 94 % of control

*Q* State the measured T/C (L1210 leukemia ip in BDF1 mice, survival T/C) of O=C1CCc2c(Cl)sc(Cl)c21
*A* 91 % of control

*Q* State the measured T/C (L1210 leukemia ip in BDF1 mice, survival T/C) of CCOC(=O)NCC(CCCCN(C)C)(c1cccc2ccccc12)C(C)CC (stereo not given)
*A* 100 % of control

*Q* State the measured T/C (L1210 leukemia ip in BDF1 mice, survival T/C) of O=C(CCCCCCCCC(=O)N/N=C/c1ccc(Cl)c(Cl)c1)N/N=C/c1ccc(Cl)c(Cl)c1
*A* 91 % of control

*Q* State the measured T/C (L1210 leukemia ip in BDF1 mice, survival T/C) of O=C(CCCCC(=O)N/N=C/c1ccncc1)N/N=C/c1ccncc1
*A* 91 % of control

*Q* State the measured T/C (L1210 leukemia ip in BDF1 mice, survival T/C) of O=C(CNC(=O)Nc1ccc(Cl)c(Cl)c1)N/N=C/C=C/c1ccccc1
*A* 96 % of control

*Q* State the measured T/C (L1210 leukemia ip in BDF1 mice, survival T/C) of COC(=O)C(CCCCN=Cc1ccccc1O)N=Cc1ccccc1O.[Cu] (stereo not given)
*A* 103 % of control

*Q* State the measured T/C (L1210 leukemia ip in BDF1 mice, survival T/C) of CCOC(=O)C(C#N)=P(c1ccccc1)(c1ccccc1)c1ccccc1
*A* 96 % of control
